# tgt: IN v2 variant RBD (R319-F541 with L452R, T478K) (SARS-CoV-2, UniProt P0DTC2 319-541)
# assay remarks: flow cytometry, blocking of binding to hACE-2 cells
Output: class label from percent blocking. Mapping: bin 1 = under 0.9%, bin 2 = from 0.9% up to 20%, bin 3 = 20% and over

{"columns": ["binder", "qualitative label"],
 "data": [
  ["1035240 (antibody, V domains shown) VH: QVQLQQSGAELARPGASVKMSCKASGYTFTTYTMHWVKQRPGQGLEWIGYINPSSGYTNYNQKFKDKATLTADTSSSTAYMQLSSLTSEDSAVYYCARRNPLYAMDYWGQGTSVTVSS VL: DIKMTQSPSSMYASLGERVTITCKASQDINSYLNWFQQKPGKSPKTLIYRANRLVDGVPSRFSGSGSGQDYSLTISSLEYEDMGIYYCLQYDEFPYTFGGGTKLEIK", "bin 1"]
]}

Asked: Bin this entry: 1035762 (antibody, V domains shown) VH: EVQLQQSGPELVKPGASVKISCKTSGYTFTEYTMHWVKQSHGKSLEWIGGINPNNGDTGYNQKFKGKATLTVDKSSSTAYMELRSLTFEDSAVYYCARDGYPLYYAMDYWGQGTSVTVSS VL: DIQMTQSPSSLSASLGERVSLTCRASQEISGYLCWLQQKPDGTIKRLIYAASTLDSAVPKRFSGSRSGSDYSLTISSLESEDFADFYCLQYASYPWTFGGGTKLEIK
Given back: bin 2

Asked: Which of the defined bands does the recorded percent blocking of 1035211 (antibody, V domains shown) VH: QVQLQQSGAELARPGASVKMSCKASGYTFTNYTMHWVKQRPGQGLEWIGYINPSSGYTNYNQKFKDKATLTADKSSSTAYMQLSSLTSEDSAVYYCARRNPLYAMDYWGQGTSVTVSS VL: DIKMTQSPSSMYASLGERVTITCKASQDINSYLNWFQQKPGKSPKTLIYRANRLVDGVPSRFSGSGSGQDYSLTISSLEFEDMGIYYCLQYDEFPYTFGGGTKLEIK sit within?
Given back: bin 2

Asked: Band for the recorded percent blocking of 1035753 (antibody, V domains shown) VH: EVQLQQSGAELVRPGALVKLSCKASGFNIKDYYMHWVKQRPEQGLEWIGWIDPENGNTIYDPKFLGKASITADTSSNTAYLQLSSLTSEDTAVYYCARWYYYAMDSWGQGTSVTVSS VL: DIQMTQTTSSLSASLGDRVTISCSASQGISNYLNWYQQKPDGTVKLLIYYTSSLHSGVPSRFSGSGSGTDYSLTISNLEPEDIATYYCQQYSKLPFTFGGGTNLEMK ?
Given back: bin 1

Asked: Which bin should I file 1035709 (antibody, V domains shown) VH: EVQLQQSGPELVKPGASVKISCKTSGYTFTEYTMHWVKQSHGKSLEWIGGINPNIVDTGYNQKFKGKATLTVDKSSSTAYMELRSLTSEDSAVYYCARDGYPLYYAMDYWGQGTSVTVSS VL: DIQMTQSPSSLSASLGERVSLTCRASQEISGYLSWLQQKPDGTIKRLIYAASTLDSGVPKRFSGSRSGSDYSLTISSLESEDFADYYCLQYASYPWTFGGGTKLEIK under?
Given back: bin 2

Asked: Hey, which category is 1035423 (antibody, V domains shown) VH: EVKLEESGGGLVQPGGSMKLSCTASGFTFSDAWMDWVRQSPEKGLEWVAEIRNKANNHATYYAESVKGRFTISRDDSKSSVYLQMNSLRAEDTGIYYCILFITYAMDYWGQGTSVTVSS VL: DIVLTQSQKFMSTSVGDRVSITCKASQNVRTAVAWYQQKPGQSPKALIYLASNRHTGVPDRFTGSGSGTDFTLTISNVQSEDLADYFCLQHWNYPLTFGSGTKLELK in, do you know?
Given back: bin 3

Asked: Which bin, given its percent blocking, does 1035752 (antibody, V domains shown) VH: QVQLQQPGAELVRPGASVKMSCKASGYTFTSHSIHWVKQTPGQGLEWIGAVYPGNGDTSYYQKFKGKATLTADKSSSTAYMHLSSLTSEDSAVYYCARDGYSDYYAMDCWGQGTSVTVSS VL: DIVMTQSQKFMSTSVGDRVSVTCKASQNVGTNVAWYQQKPGQSPKALIYSASYRYSGVPDRFTGSGSGTDFTLTINNVQSEDLAEYFCQQYNRYPWTFGGGTKLEIK occupy?
Given back: bin 1

Asked: For the record 1035433 (antibody, V domains shown) VH: QVQLQQSGPQLVRPGASVKISCKASGYSFTIYWMHWVQQRPGQGLEWIGMIDPSDSETRLNQKFKDKATLTVDKSSSTAYMQLSSPTSEDSAVYYCARRGDYNFDYWGQGTTLTVSS VL: DIVMTQAAPSVPATPGESVSISCRSSKSLLHSNGNTYLYWFLQRPGQSPQLLIFRMSNLASGVPDRFSGSGSGTAFTLRISRVEAEDVGVYYCMQHLEYPYTFGGGTKLEIK , report the class its percent blocking corresponds to.
Given back: bin 2

Asked: // bin(item) where item = 1035414 (antibody, V domains shown) VH: QVQLKQSGAELVRPGASVKLSCKTSGYIFTSYWIHWVKQRSGQGLEWIARIYPGTGNTYYNEKFKGKATLTADKSSTTAYMQLSSLKSEDSAVYFCARGEDNLYYYAMDYWGQGTSVTVSS VL: NIVLTQSPASLAVSLGQRATISCRASESVDSYGTSFMHWYQQKPGQPPKLLIYLASNLESGVPASFSGSGSRTDFTLTIDPVEADDAATYYCQQNNEDPWTFGGGTKLEIK
Given back: bin 3

Asked: Which band does 1035740 (antibody, V domains shown) VH: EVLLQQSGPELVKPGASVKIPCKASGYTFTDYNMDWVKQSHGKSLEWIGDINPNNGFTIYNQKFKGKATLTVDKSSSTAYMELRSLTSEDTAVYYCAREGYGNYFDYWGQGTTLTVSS VL: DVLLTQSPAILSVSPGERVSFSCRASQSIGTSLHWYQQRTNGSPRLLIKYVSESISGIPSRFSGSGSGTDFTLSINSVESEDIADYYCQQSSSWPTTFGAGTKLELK fall in?
Given back: bin 3
